# tested_system: Fyn (UniProt P06241)
# Sequence (P06241 whole entry, looked up): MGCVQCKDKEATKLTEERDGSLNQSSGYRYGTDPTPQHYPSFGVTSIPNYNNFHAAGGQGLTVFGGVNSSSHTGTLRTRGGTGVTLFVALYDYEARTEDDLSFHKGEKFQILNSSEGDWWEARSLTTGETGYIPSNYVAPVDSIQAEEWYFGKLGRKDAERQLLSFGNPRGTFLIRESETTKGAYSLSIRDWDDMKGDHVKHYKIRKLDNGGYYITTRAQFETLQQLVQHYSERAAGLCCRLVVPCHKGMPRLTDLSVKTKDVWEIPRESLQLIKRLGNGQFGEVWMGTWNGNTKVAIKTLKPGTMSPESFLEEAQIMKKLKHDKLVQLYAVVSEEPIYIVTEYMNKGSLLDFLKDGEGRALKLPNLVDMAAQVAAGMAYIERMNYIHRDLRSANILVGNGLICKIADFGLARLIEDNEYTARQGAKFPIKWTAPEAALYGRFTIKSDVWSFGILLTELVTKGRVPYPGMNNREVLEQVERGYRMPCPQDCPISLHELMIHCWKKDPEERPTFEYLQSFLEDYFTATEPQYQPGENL
# experimental_protocol: phosphorylation enrichment, bacterial display (enrichment ratio); higher = better substrate or ligand; peptides without Tyr show the background;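 also: 11-residue human phosphosite peptides and single-mutation variants displayed on the E. coli surface, counted by deep sequencing, each peptide's frequency after selection divided by its frequency in the unselected input library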;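 also: frequency after pTyr selection over input frequency; kinase dosed for 20-30% of maximal phosphorylation in three min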
reported_metric: phosphorylation enrichment

Find the recorded phosphorylation enrichment belonging to LYDPDYMKVIL [CYP4A22_Y104] and report it.
0.72

Next up: HFGCVYFGTLL [MET_Y1093_H1094Y_YF]
0.899

New cases:
Find the recorded phosphorylation enrichment belonging to CTTFHYNFMCN [TP53_Y234_I232F_YF] and report it.
0.501

Next up: LHRHAYPEQRQ [DPPA2_Y127]
0.502

Next up: HRGHLYLAIEY [TEK_Y899_Y897H]
0.447

Next up: LLKAKYELLNA [POLR3A_Y714]
0.466

Next up: TVDASYFGGRG [ANTXR2_Y380_YF]
0.403

Next up: VFGVSYDEYRY [CFTR_Y512_I507V]
0.802

Next up: LEHCQYVTEKV [ALDOB_Y204]
1.59

Next up: GDFFRYLAEVA [YWHAG_Y133_YF]
0.432

Next up: MSRYIYSTDYY [NTRK1_Y676_D674Y]
6.8

Next up: LCHELYNTIRD [PBRM1_Y54_V49L]
1

Next up: NACGLYHTMNG [GATA5_Y216_K218T]
0.865

Next up: QDDTVYMGKVT [DCTN1_Y1244]
0.958
